assay: yeast display, Sf9 membrane polyspecificity reagent, FACS + sequencing; frameworks hold sequencing errors
assayEndpoint: polyreactivity (PSR sort gate)

Ask: Provide measured polyreactivity (PSR sort gate) value, entry: `QVQLVESGGALVQAGGSLRLSCAASGITFFTNAMGWYRQAPGKERELVAAISSGGRTYYADSVKGRFTISRDNAKNTVYLQMKSLKPEDTAVYYCAKRSYFYPDYYWGQGTQVTVSS`
Reply: high polyreactivity

Ask: Give the reported polyreactivity (PSR sort gate) for this sequence. `QFQLVESVGGLVQAGGSLRLSCAASGRTFVDYDMGCYRPAPGKERELVAAIRRGGSTTYEDSVKGRFTISRDNAKNTVYLQMNSLKPEDTAVYYCATDNTYGSDYWGQGTQVTVSW`
Reply: high polyreactivity

Ask: Retrieve polyreactivity (PSR sort gate) measured for `QVQQQESGGGLVQEGGSLRLSCAASGNISPPADMGWYRQAPGKERELVASIGTGGTTNYADSVKGRFTISRDNAKNTVYLQMNSLKPDDTAVFYCAAVRYEYNPYDYWGQGTQVTVSS` and print it.
Reply: low polyreactivity

Ask: Specify measured polyreactivity (PSR sort gate) for `QVQLVESGGGLVQAGGSLRLSCAASGSTSYRYAMGWYRQAPGKERELVAGITRSGGSTYYADSVKGRFTISRDNAKNTVYLQMNSLKPEDTAVYYCAAYYSRQYVGYGYWGQGTQVTVSS` .
Reply: high polyreactivity

Ask: Identify the reported polyreactivity (PSR sort gate) for the following entry. `QVQLVESGGGLVQAGGSLRLSCAASGSTFDYNTMGWYRQAPGKERELVAAISESGGSTYYADSVKGRFTISRDNAKNTVYLQMNSLKPEDTAVSYCATDDFGGYFGEYDYWGQGTQVTVSS`
Reply: low polyreactivity

Then there is this sequence:
Ask: Supply reported polyreactivity (PSR sort gate) belonging to this sequence: `QVQLVESGGGLVQAGGSLRLSCAASGITFFGYAMGWYREAPGKERELVAGISRSTGRTYYADSVKGRFTISRDNAKNTVYLQMNILKPEDTAVYYCAARATRSLSRYMDYWGQGTQVTVSS`
Reply: high polyreactivity

* * *

test: yeast display, Sf9 membrane polyspecificity reagent, FACS + sequencing; frameworks hold sequencing errors
assayEndpoint: polyreactivity (PSR sort gate)

# count of solved cases: 10
Ask: Find the measured polyreactivity (PSR sort gate) of `QVQLVESGAALVQAGGSLRLSCAASGRTFWFNAMGWYRQPPGKERELVASISLSVGSTYYADSVKGRFTISRDNAKNTVYLQMNSLKAEDTAVYNCAADQTVHISSYDYWGQGTQVTVSS` and report it.
Reply: low polyreactivity

Ask: Return polyreactivity (PSR sort gate) (reported value) for this sequence: `QVQLVESGGGLVQAGGSLRLSCAASGSTFPRYAMGWYRQAPGKERELVAAISRSGTTTYYADSVKGRFTISRDNAKNTVYLQMNSLKPEDTAVYYCAKRHYARYDYWGQGTQVTVSS`
Reply: high polyreactivity

Ask: Output measured polyreactivity (PSR sort gate) for this item: `QVQLEESGGGLVQAGGSLRLSCAASGRIFGRNARGWYRQAPVKERELVAAISWRGGNTYYADSVKGRFTISRDNAKNTVYLQMKSLKAEDTAFYYCNTVQSRNEMGYWGQGTQVTVSS`
Reply: high polyreactivity

Ask: Quickly give me recorded polyreactivity (PSR sort gate) for `QVQLVESGGGLDQAGGSLRLSCAASGNIFVEYAMGWYSQAPGKERELVAAITNSGGRTHYADSVKGRFTISRDNAKNTGSLQMNSRKPEDTAVFYCAAPTKYRSRRYYWGQGTQVSVSS`
Reply: high polyreactivity

Ask: Retrieve polyreactivity (PSR sort gate) measured for `QVQLVESGGGLVQAGGSLRLSCAASGITFNPYTMGWYRQAPGKERELVADINRGGDTTYADSVKGRFTISRDNAKNTVYLQMNSLKPEDTAVYYCAKRLVQWMDYWGQGTQVTVSS` and print it.
Reply: low polyreactivity

Ask: State, in one line, measured polyreactivity (PSR sort gate) of `QVQLVESGGGLVQAGGSLRLSCAASGNTFGLYAMGWYRQAPGKEREFVADITTDGGTTYYADSVKGRFTISRDNAKNTVYLQMNSLKPEDTAVYYCAKLGTFGQHQYDYWGQGTQVTVSS`
Reply: low polyreactivity

Ask: Input `QVQLVESGGGIVQAGGSLRLSCAASGRTFYANAMGWYRQAPGKERELVAAISTVGDGTYYADSVKGRFTISRDNAKYTVYLQMNSLKPEDTAVYYCAVRHRASGILYDYWRQGTQVTVSS` , output reported polyreactivity (PSR sort gate).
Reply: low polyreactivity

Ask: Write down polyreactivity (PSR sort gate) measured for item `QVQLVESGGGLDAAGGSLRLSCAASGSTVIAYAMGWYRQAPGKEWELVAVMTSRGGRTYYADSVKGRFTISRDNAKNTVYLQMNSQKPEDTAVYYCATRSYRYLRSYDYWGQGTQVTVSS`
Reply: high polyreactivity

Ask: Assign polyreactivity (PSR sort gate) to the following record: `QVQLVESGGGLVQAGGSLRLICAASGIIFHFNDMGWYRQAPGKERELVAAIDSTGSTNYADSVKGRFTISRDNAKNTVYLQMNSLKPEDTAVYYCAVLNHRVDSVLTRYYYWGQGTQVTVSS`
Reply: low polyreactivity

Ask: Look up and state reported polyreactivity (PSR sort gate) for `QVQHVESGGGLVQAGGSLRLSCAASGSISKINAMGWYRQAPGKERELVAAINTGDSTYYADSVKGRFTISRDNAKNSVYLQMNSLKPEDSAVYYCAAEGSPTGYDYWGQGTQVTVSS`
Reply: low polyreactivity

Consider the additional sequence presented here.
Ask: Specify reported polyreactivity (PSR sort gate) for the sequence shown: `QVQLVESGGGLVQEGGSLRLSCAASGSTFRFYAMGWYRQAPGKERELVAVISFNDGSTYYADSVTGRFTISRDNAKNTVYLQMNSLKPEDSAVYSCATDELDSWWNEYEYWGQGTQVTVSS`
Reply: low polyreactivity
